System: Pseudomonas aeruginosa
Experiment: Antibacterial activity against IMP-4 producing Pseudomonas aeruginosa isolate 208247 after 18 hrs in presence of BPL by CLSI broth microdilution method
Format: functional
Conditions: isolate 208247, 18 h
quantity_measured: MIC (µg/mL)

CC(C)C(O/N=C(\C(=O)N[C@@H]1C(=O)N(S(=O)(=O)O)[C@@H]1CSc1nc(=O)c(O)nn1C)c1csc(N)n1)c1cc(=O)c(O)cn1O (some centres undefined) | 64

[I] CC(=O)OC[C@@H]1[C@H](NC(=O)/C(=N\OC(c2cc(=O)c(O)cn2O)C(C)C)c2csc(N)n2)C(=O)N1S(=O)(=O)O (some centres undefined)
[II] CC(C)C(O/N=C(\C(=O)NC1C(=O)N(S(=O)(=O)O)C12CCCC2)c1csc(N)n1)c1cc(=O)c(O)cn1O (centres undefined)
[III] CC(C)C(O/N=C(\C(=O)N[C@@H]1C(=O)N(S(=O)(=O)O)[C@@H]1Cn1cc(COCc2cc(=O)c(O)cn2O)nn1)c1csc(N)n1)c1cc(=O)c(O)cn1O (some centres undefined)
Ordering criterion: MIC; begin with the maximum. Present the labels in the sequence the task asks for.
I, II, III

====

Parameter: Selectivity Index. Scope: all listed entries.
Test system: Escherichia coli
Assay: Selectivity index, ratio of MIC for against extended-spectrum beta-lactamase producing Escherichia coli isolate 208687 to MIC for extended-spectrum beta-lactamase producing Escherichia coli isolate 208687 in presence of BPL
Assay type: functional
# respond with the number and nothing more

Cc1nnc(SC[C@@H]2[C@H](NC(=O)/C(=N\OC(c3cc(=O)c(O)cn3O)C(C)C)c3csc(N)n3)C(=O)N2S(=O)(=O)O)s1 (some centres not stated) | 16
CC(C)C(O/N=C(\C(=O)N[C@@H]1C(=O)N(S(=O)(=O)O)[C@@H]1CSc1nnnn1C)c1csc(N)n1)c1cc(=O)c(O)cn1O (some centres not stated) | 2
CC(C)C(O/N=C(\C(=O)N[C@@H]1C(=O)N(S(=O)(=O)O)[C@@H]1COC(N)=O)c1csc(N)n1)c1cc(=O)c(O)cn1O (some centres not stated) | 2
CC(C)C(O/N=C(\C(=O)N[C@@H]1C(=O)N(S(=O)(=O)O)[C@@H]1COS(=O)(=O)O)c1csc(N)n1)c1cc(=O)c(O)cn1O (some centres not stated) | 4
CC(C)C(O/N=C(\C(=O)N[C@@H]1C(=O)N(S(=O)(=O)O)[C@@H]1Cn1cc(COCc2cc(=O)c(O)cn2O)nn1)c1csc(N)n1)c1cc(=O)c(O)cn1O (some centres not stated) | 16

// fetch Selectivity Index given entry CC(C)C(O/N=C(\C(=O)N[C@@H]1C(=O)N(S(=O)(=O)O)[C@@H]1CCl)c1csc(N)n1)c1cc(=O)c(O)cn1O (some centres not stated)
2

For the compound CC(C)C(O/N=C(\C(=O)N[C@@H]1C(=O)N(S(=O)(=O)O)[C@@H]1COC(=O)CNC(=O)c1cc(=O)c(O)c[nH]1)c1csc(N)n1)c1cc(=O)c(O)cn1O (some centres not stated) , give its measured Selectivity Index value.
8

Output Selectivity Index of CC(C)C(O/N=C(\C(=O)N[C@@H]1C(=O)N(S(=O)(=O)O)[C@@H]1COC(=O)C1CN(C(=O)c2ccc(O)c(O)c2Cl)C1)c1csc(N)n1)c1cc(=O)c(O)cn1O (some centres not stated)
8

Supply Selectivity Index value. Item: CC(C)C(O/N=C(\C(=O)N[C@@H]1C(=O)N(S(=O)(=O)O)C12CCCC2)c1csc(N)n1)c1cc(=O)c(O)cn1O (some centres not stated)
2

Respond only with Selectivity Index recorded for CC(C)C(O/N=C(\C(=O)NC1C(=O)N(S(=O)(=O)O)C12CCCC2)c1csc(N)n1)c1cc(=O)c(O)cn1O (configuration not stated)
2

Supply Selectivity Index value. Item: CC(C)C(O/N=C(\C(=O)N[C@@H]1C(=O)N(S(=O)(=O)O)[C@@H]1CO)c1csc(N)n1)c1cc(=O)c(O)cn1O (some centres not stated)
2

Name the recorded Selectivity Index of the item CC(C)C(O/N=C(\C(=O)N[C@@H]1C(=O)N(S(=O)(=O)O)[C@@H]1COC(=O)c1ccc(O)c(O)c1Cl)c1csc(N)n1)c1cc(=O)c(O)cn1O (some centres not stated) in your answer.
2

====

Tested on: Escherichia coli
Assay: Antibacterial activity against extended-spectrum beta-lactamase producing Escherichia coli isolate 209285 after 18 hrs by CLSI broth microdilution method
Assay type: functional
Conditions: isolate 209285, 18 h
quantity_measured: MIC (µg/mL)

Please review the entries below; each comes with its answer.
CC(C)C(O/N=C(\C(=O)N[C@@H]1C(=O)N(S(=O)(=O)O)[C@@H]1COC(=O)C1CN(C(=O)c2ccc(O)c(O)c2Cl)C1)c1csc(N)n1)c1cc(=O)c(O)cn1O (some centres undefined) | 16
CC(C)C(O/N=C(\C(=O)N[C@@H]1C(=O)N(S(=O)(=O)O)[C@@H]1CCl)c1csc(N)n1)c1cc(=O)c(O)cn1O (some centres undefined) | 0.5
CC(=O)OC[C@@H]1[C@H](NC(=O)/C(=N\OC(c2cc(=O)c(O)cn2O)C(C)C)c2csc(N)n2)C(=O)N1S(=O)(=O)O (some centres undefined) | 1
Cc1csc(SC[C@@H]2[C@H](NC(=O)/C(=N\OC(c3cc(=O)c(O)cn3O)C(C)C)c3csc(N)n3)C(=O)N2S(=O)(=O)O)n1 (some centres undefined) | 2
CC(C)C(O/N=C(\C(=O)NC1C(=O)N(S(=O)(=O)O)C12CCCCC2)c1csc(N)n1)c1cc(=O)c(O)cn1O (centres undefined) | 64
CC(C)C(O/N=C(\C(=O)N[C@@H]1C(=O)N(S(=O)(=O)O)[C@@H]1CN1CCNC1=O)c1csc(N)n1)c1cc(=O)c(O)cn1O (some centres undefined) | 1
C[C@@H](O)[C@H]1C(=O)N2C(C(=O)O)=C(S[C@@H]3CN[C@H](C(=O)N(C)C)C3)[C@H](C)[C@H]12 [MEROPENEM] | 1
Cc1nnc(SC[C@@H]2[C@H](NC(=O)/C(=N\OC(c3cc(=O)c(O)cn3O)C(C)C)c3csc(N)n3)C(=O)N2S(=O)(=O)O)s1 (some centres undefined) | 4
CC(C)C(O/N=C(\C(=O)NC1C(=O)N(S(=O)(=O)O)C12CCOCC2)c1csc(N)n1)c1cc(=O)c(O)cn1O (centres undefined) | 16

[P] CC(C)C(O/N=C(\C(=O)N[C@@H]1C(=O)N(S(=O)(=O)O)[C@@H]1COS(=O)(=O)O)c1csc(N)n1)c1cc(=O)c(O)cn1O (some centres undefined)
[Q] COC[C@@H]1[C@H](NC(=O)/C(=N\OC(c2cc(=O)c(O)cn2O)C(C)C)c2csc(N)n2)C(=O)N1S(=O)(=O)O (some centres undefined)
[R] CC(C)C(O/N=C(\C(=O)N[C@@H]1C(=O)N(S(=O)(=O)O)[C@@H]1Cn1cc(COCc2cc(=O)c(O)cn2O)nn1)c1csc(N)n1)c1cc(=O)c(O)cn1O (some centres undefined)
[S] CC(C)C(O/N=C(\C(=O)N[C@@H]1C(=O)N(S(=O)(=O)O)[C@@H]1CSc1nnnn1C)c1csc(N)n1)c1cc(=O)c(O)cn1O (some centres undefined)
[T] CC(C)C(O/N=C(\C(=O)NC1C(=O)N(S(=O)(=O)O)C12CCC2)c1csc(N)n1)c1cc(=O)c(O)cn1O (centres undefined)
// smallest MIC at index 0, largest at the end Answer by writing out the labels in the requested order.
Q, S, T, P, R
(Q: 0.5 µg/mL, S: 1 µg/mL, T: 4 µg/mL, P: 8 µg/mL, R: 16 µg/mL)

====

Assay: Intrinsic clearance in human liver microsomes assessed per g protein at 0.1 uM pre-incubated with compound followed by NADPH addition and measured after 60 mins by LC-MS/MS analysis
Assay type: ADME, microsome
Conditions: 1 h
quantity_measured: CLint (mL/min/g)

CC(C)C(O/N=C(\C(=O)N[C@@H]1C(=O)N(S(=O)(=O)O)[C@@H]1COC(N)=O)c1csc(N)n1)c1cc(=O)c(O)cn1O (some centres undefined) | 11.9

[I] CC(C)C(O/N=C(\C(=O)N[C@@H]1C(=O)N(S(=O)(=O)O)C12CCCC2)c1csc(N)n1)c1cc(=O)c(O)cn1O (some centres undefined)
[II] CC(C)C(O/N=C(\C(=O)N[C@@H]1C(=O)N(S(=O)(=O)O)[C@@H]1CCl)c1csc(N)n1)c1cc(=O)c(O)cn1O (some centres undefined)
Just curious, which one has the larger CLint reading, I or II ? Please respond with the label that marks your chosen entry.
II
(II: 11.1 mL/min/g, I: 7.76 mL/min/g)

====

Tested on: Escherichia coli
Assay: Antibacterial activity against extended-spectrum beta-lactamase producing Escherichia coli isolate 208687 after 18 hrs by CLSI broth microdilution method
Type: functional
Conditions: isolate 208687, 18 h
quantity_measured: MIC (µg/mL)

For orientation, consider the following solved cases.
CC(C)C(O/N=C(\C(=O)N[C@@H]1C(=O)N(S(=O)(=O)O)[C@@H]1CN1CCNC1=O)c1csc(N)n1)c1cc(=O)c(O)cn1O (some centres undefined) | 1
CC(C)C(O/N=C(\C(=O)N[C@@H]1C(=O)N(S(=O)(=O)O)[C@@H]1COC(=O)C1CN(C(=O)c2ccc(O)c(O)c2Cl)C1)c1csc(N)n1)c1cc(=O)c(O)cn1O (some centres undefined) | 16
Cc1nnc(SC[C@@H]2[C@H](NC(=O)/C(=N\OC(c3cc(=O)c(O)cn3O)C(C)C)c3csc(N)n3)C(=O)N2S(=O)(=O)O)s1 (some centres undefined) | 2
CC(C)C(O/N=C(\C(=O)N[C@@H]1C(=O)N(S(=O)(=O)O)[C@@H]1CSc1nc2ccccc2o1)c1csc(N)n1)c1cc(=O)c(O)cn1O (some centres undefined) | 4
CC(C)C(O/N=C(\C(=O)N[C@@H]1C(=O)N(S(=O)(=O)O)[C@@H]1CSc1nnnn1C)c1csc(N)n1)c1cc(=O)c(O)cn1O (some centres undefined) | 0.125

[A] CC(C)C(O/N=C(\C(=O)NC1C(=O)N(S(=O)(=O)O)C12CCCCC2)c1csc(N)n1)c1cc(=O)c(O)cn1O (centres undefined)
[B] COC[C@@H]1[C@H](NC(=O)/C(=N\OC(c2cc(=O)c(O)cn2O)C(C)C)c2csc(N)n2)C(=O)N1S(=O)(=O)O (some centres undefined)
[C] CC(C)C(O/N=C(\C(=O)NC1C(=O)N(S(=O)(=O)O)C12CCCC2)c1csc(N)n1)c1cc(=O)c(O)cn1O (centres undefined)
Ascending by MIC, please: list the compounds accordingly. Please reply with the labels ordered as requested. Many thanks.
B, C, A

[1] CC(C)C(O/N=C(\C(=O)N[C@@H]1C(=O)N(S(=O)(=O)O)[C@@H]1COC(=O)CNC(=O)c1cc(=O)c(O)c[nH]1)c1csc(N)n1)c1cc(=O)c(O)cn1O (some centres undefined)
[2] CC(C)C(O/N=C(\C(=O)N[C@@H]1C(=O)N(S(=O)(=O)O)[C@@H]1COS(=O)(=O)O)c1csc(N)n1)c1cc(=O)c(O)cn1O (some centres undefined)
I'm curious whether 1 or 2 has the smaller MIC number. Which is it? // return label of chosen record
2

[a] CC(C)C(O/N=C(\C(=O)N[C@@H]1C(=O)N(S(=O)(=O)O)C12CCCC2)c1csc(N)n1)c1cc(=O)c(O)cn1O (some centres undefined)
[b] C=CC1[C@H](NC(=O)/C(=N\OC(c2cc(=O)c(O)cn2O)C(C)C)c2csc(N)n2)C(=O)N1S(=O)(=O)O (some centres undefined)
[c] CC(=O)OC[C@@H]1[C@H](NC(=O)/C(=N\OC(c2cc(=O)c(O)cn2O)C(C)C)c2csc(N)n2)C(=O)N1S(=O)(=O)O (some centres undefined)
[d] Cc1csc(SC[C@@H]2[C@H](NC(=O)/C(=N\OC(c3cc(=O)c(O)cn3O)C(C)C)c3csc(N)n3)C(=O)N2S(=O)(=O)O)n1 (some centres undefined)
[e] CC(C)C(O/N=C(\C(=O)N[C@@H]1C(=O)N(S(=O)(=O)O)[C@@H]1COC(=O)c1ccc(O)c(O)c1Cl)c1csc(N)n1)c1cc(=O)c(O)cn1O (some centres undefined)
List by increasing MIC. Answer by listing the labels in the requested order.
a, c, d, e, b
